Biological target: human CB2 receptors (Homo sapiens (Human), UniProt P34972)
Sequence (P34972 whole entry): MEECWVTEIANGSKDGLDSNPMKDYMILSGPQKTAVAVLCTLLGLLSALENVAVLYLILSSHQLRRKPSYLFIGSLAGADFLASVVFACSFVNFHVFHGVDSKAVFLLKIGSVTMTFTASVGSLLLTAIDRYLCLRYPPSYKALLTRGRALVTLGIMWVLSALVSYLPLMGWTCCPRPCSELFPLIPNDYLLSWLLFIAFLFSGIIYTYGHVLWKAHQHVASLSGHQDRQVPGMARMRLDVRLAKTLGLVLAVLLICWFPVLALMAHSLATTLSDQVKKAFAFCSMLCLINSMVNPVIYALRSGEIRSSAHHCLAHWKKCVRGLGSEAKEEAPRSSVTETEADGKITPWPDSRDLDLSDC
Assay: cAMP assay, CHO cells expressing human CB2 receptors
Type: cell-based
Settings: CHO cells expressing human CB2, cAMP; read-out: human CB2 EC50
pEC50: −log10 of the molar value.
Threshold rule: pEC50 greater than or equal to 8 is true (1); below that, false (0).

Examples with answers:
[[record]]
compound = "CC1(C)CCc2ccc(C(=O)NC[C@](C)(O)C3CC3)nc2C1"
assayed_target = "human CB2 receptors (Homo sapiens (Human), UniProt P34972)"
answer_label = "false (0)"

[[record]]
compound = "CCC(CC)(NC(=O)c1ccc(C2CC2)c(OCC[C@H](O)C(F)(F)F)n1)C(=O)NC"
assayed_target = "human CB2 receptors (Homo sapiens (Human), UniProt P34972)"
answer_label = "true (1)"

[[record]]
compound = "CC(C)C[C@H](NC(=O)c1ccc(C2CC2)c(S(=O)(=O)CC(C)C)n1)C(N)=O"
assayed_target = "human CB2 receptors (Homo sapiens (Human), UniProt P34972)"
answer_label = "false (0)"

[[record]]
compound = "CNC(=O)[C@H](CC(C)C)NC(=O)c1ccc(C2CC2)c(OCC2CC2)n1"
assayed_target = "human CB2 receptors (Homo sapiens (Human), UniProt P34972)"
answer_label = "true (1)"

[[record]]
compound = "CCN(C)C(=O)C(CC)(CC)NC(=O)c1ccc(C2CC2)c(OCC2CC2)n1"
assayed_target = "human CB2 receptors (Homo sapiens (Human), UniProt P34972)"
answer_label = "false (0)"


Task item: Determine whether this compound has pEC50 no lower than 8: CCOC(=O)C(CC)(CC)NC(=O)c1ccc(N2CCCC2)c(OCC2CC2)n1
Reply: true (1)

Task item: Please check the record Cc1nc(C(C)(C)NC(=O)c2ccc(C3CCCC3)c(-c3cccc(Cl)c3)n2)no1 and state if its pEC50 is at or above 8.
Reply: false (0)

Task item: Check the entry CNC(=O)C(C)(C)NC(=O)c1ccc(C2CC2)c(-c2cccc(Cl)c2)n1 : does pEC50 equal or exceed 8?
Reply: false (0)

Task item: Please check the record O=C(NC(c1ccccn1)C(F)(F)F)c1ccc(N2CC(F)(F)C2)c(OCC2CC2)n1 (stereo not shown) and state if its pEC50 is at or above 8.
Reply: false (0)

Task item: Textbook exercise: given the entry COCCOCC(C)(C)NC(=O)c1ccc(N2CC(F)(F)C2)c(-c2cccc(Cl)c2)n1 , state whether its pEC50 is greater than or equal to 8.
Reply: false (0)

Task item: Test whether the compound O=C(N[C@@H](CC1CC1)c1nccs1)c1ccc(C2CCOCC2)c(OCC2CC2)n1 records pEC50 of 8 or higher.
Reply: false (0)

Task item: Is reported pEC50 greater than or equal to 8 here: CNC(=O)[C@@H](NC(=O)c1cccc(-c2cccc(C(F)(F)F)c2)n1)C(C)(C)C
Reply: false (0)

Task item: Could you please find out whether CC1(NC(=O)c2ccc(N3CC(F)(F)C3)c(OCC3CC3)n2)COC1 has pEC50 that meets 8 or exceeds it?
Reply: false (0)

Task item: For this compound, is measured pEC50 8 or higher? Cc1nc(C(C)(C)NC(=O)c2ccc(C3CCCO3)c(-c3cccc(Cl)c3)n2)no1 (stereo not shown)
Reply: false (0)

Task item: Hi, just wondering whether CC(C)(NC(=O)c1cccc(-c2cccc(Cl)c2)n1)c1nnco1 shows pEC50 of 8 or higher.
Reply: false (0)

Task item: # bool: pEC50 of Cc1nc(C(C)(C)NC(=O)c2ccc(C3CCCO3)c(OCC3CC3)n2)no1 (stereo not shown) >= 8
Reply: false (0)

Task item: For this compound, is measured pEC50 8 or higher? CNC(=O)[C@H](CC(C)C)NC(=O)c1cccc(-c2ccccc2)n1
Reply: false (0)

Task item: Check this compound for pEC50 at or above 8: CCC(CC)(NC(=O)c1ccc(C2CC2)c(OCC2CC2)n1)C(=O)OC
Reply: true (1)

Task item: Tell me whether pEC50 is at least 8 here: CC(C)C[C@H](NC(=O)c1ccc(Cl)c(-c2cccc(Cl)c2)n1)C(N)=O
Reply: false (0)

Task item: Assess whether reported pEC50 for Cc1nc(C(C)(C)NC(=O)c2ccc(N3CC(F)(F)C3)c(OCC3CC3)n2)no1 sits at 8 or higher.
Reply: false (0)
